Target: ALK (Homo sapiens (Human), UniProt Q9UM73)
Sequence (Q9UM73 19-1620, species assumed): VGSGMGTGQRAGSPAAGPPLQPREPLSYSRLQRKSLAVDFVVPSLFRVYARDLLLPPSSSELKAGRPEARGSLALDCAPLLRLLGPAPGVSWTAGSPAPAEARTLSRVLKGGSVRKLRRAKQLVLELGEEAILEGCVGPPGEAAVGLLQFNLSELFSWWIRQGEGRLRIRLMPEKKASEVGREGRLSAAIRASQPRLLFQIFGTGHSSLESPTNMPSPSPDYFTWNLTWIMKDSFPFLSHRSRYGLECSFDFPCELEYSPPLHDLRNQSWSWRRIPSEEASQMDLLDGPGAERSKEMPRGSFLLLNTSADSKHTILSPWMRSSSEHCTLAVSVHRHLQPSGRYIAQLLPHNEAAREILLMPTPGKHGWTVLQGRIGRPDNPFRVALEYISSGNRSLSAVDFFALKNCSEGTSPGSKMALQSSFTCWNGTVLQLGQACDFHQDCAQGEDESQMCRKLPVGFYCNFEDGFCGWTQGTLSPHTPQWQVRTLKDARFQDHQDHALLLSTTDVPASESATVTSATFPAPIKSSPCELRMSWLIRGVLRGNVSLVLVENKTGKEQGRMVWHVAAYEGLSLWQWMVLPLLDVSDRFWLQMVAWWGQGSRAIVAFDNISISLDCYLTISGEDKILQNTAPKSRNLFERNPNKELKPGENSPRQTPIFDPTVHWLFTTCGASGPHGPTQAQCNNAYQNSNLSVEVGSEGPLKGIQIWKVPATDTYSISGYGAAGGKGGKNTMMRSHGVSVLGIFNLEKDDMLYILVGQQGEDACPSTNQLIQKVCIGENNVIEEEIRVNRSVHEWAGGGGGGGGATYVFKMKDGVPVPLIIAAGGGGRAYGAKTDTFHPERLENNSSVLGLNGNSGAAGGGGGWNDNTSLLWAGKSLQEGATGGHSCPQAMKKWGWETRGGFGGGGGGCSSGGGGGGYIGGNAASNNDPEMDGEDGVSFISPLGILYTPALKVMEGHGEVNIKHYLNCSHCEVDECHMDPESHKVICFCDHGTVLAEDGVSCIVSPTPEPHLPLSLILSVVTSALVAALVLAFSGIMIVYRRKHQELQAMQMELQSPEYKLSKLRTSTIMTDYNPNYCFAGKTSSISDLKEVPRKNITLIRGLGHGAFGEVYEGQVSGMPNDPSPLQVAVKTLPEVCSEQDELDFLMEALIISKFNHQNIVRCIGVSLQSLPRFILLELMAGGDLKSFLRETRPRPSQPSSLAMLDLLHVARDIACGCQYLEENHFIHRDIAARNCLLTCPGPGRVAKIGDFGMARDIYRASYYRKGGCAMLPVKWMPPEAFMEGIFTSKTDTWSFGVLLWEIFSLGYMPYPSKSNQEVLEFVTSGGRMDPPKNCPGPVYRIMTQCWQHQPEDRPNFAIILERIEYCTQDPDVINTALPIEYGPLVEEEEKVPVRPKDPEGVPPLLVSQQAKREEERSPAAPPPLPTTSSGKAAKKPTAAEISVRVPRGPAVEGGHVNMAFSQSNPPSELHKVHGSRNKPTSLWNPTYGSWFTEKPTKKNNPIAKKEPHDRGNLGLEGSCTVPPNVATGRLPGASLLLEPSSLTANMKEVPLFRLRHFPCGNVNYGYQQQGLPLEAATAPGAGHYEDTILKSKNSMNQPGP
readout type: pIC50
Keep in mind that pIC50 stands for -log10 of concentration in molar terms.

Reported pIC50 ( CNC1CCN(C(=O)Nc2c(C)[nH]c(/C=C3\C(=O)Nc4ccc(F)cc43)c2C)CC1.Cl [Compound 5] ) = 5.31

---

Target: FLT3 D835Y (Homo sapiens (Human), UniProt P36888, D835Y)
Assay: HTRF in vitro tyrosine kinase inhibition
Conditions: ATP 120 μM, read-out: IC50 against FLT3 D835Y
readout type: IC50 (nM)
Please give a number only; it is taken to be in nM.

Reported IC50 ( `CNC1CCN(C(=O)Nc2c(C)[nH]c(/C=C3\C(=O)Nc4ccc(F)cc43)c2C)CC1.Cl` ) = 17.3
